System: 855422-203-R-J1-PDC complex spheroid viability;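 further: spheroids exposed to compounds for seven days before readout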
assay_remarks: Anticancer human tumor 855422-203-R-J1-PDC patient-derived bladder carcinoma cell line growth inhibition [POLQ]
assay_setup: second compound 3.16 µM; first compound 0.1 µM; active compounds read low
Method: Multicellular complex tumor spheroid response to Polymerase (POL) inhibitors (novobiocin, ART-558, RP6685) in combination with a variety of drugs and investigational agents in selected tumor cell lines The POL inhibitors (novobiocin, ART-558, and RP6685) were evaluated both individually and in combination with standard of care and investigational anticancer small molecules within a complex spheroid model of solid tumors. . […]
For each record, write down the corresponding viability, T/C.

Below, 3 molecules whose answers are already recorded.
COc1ccc([C@@H](O)c2cc(-c3ncnc4cc(N5CCOCC5)ccc34)c(F)cc2Cl)nn1 + COC1C(OC(N)=O)C(O)C(Oc2ccc3c(O)c(NC(=O)c4ccc(O)c(CC=C(C)C)c4)c(=O)oc3c2C)OC1(C)C | 107%
C=CC(=O)N1CCN(c2nc(=O)n(-c3c(C)ccnc3C(C)C)c3nc(-c4c(O)cccc4F)c(F)cc23)C(C)C1 (stereo not given) + COC1C(OC(N)=O)C(O)C(Oc2ccc3c(O)c(NC(=O)c4ccc(O)c(CC=C(C)C)c4)c(=O)oc3c2C)OC1(C)C | 108%
CCc1cc2c(N3CCc4c(cc(Cn5ccnc5)cc4-c4cn(C)nc4C(F)(F)F)C3=O)cc(C)nc2c(OC)n1 + Nc1ccc(C#CCN(C(=O)Cc2ncc(C(F)(F)F)cc2C(F)(F)F)c2ccc(F)cc2)nn1 | 118%

For every listed record, write down its viability, T/C.
1. CCc1cc2c(N3CCc4c(cc(Cn5ccnc5)cc4-c4cn(C)nc4C(F)(F)F)C3=O)ccnc2c(OC)n1 + Cc1cccc(N(C)C(=O)C2C(O)CCN2c2nc(C)cc(C(F)(F)F)c2C#N)c1
2. CCc1c2c(nc3ccc(O)cc13)-c1cc3c(c(=O)n1C2)COC(=O)[C@]3(O)CC + COC1C(OC(N)=O)C(O)C(Oc2ccc3c(O)c(NC(=O)c4ccc(O)c(CC=C(C)C)c4)c(=O)oc3c2C)OC1(C)C
3. O=C(Nc1ccc(O)c(NS(=O)(=O)c2ccc(F)cc2)c1)c1ccc(-c2ccccc2)cc1 + Nc1ccc(C#CCN(C(=O)Cc2ncc(C(F)(F)F)cc2C(F)(F)F)c2ccc(F)cc2)nn1
4. C#Cc1c(F)ccc2cc(O)cc(-c3ncc4c(N5CC6CCC(C5)N6)nc(OCC56CCCN5CC(F)C6)nc4c3F)c12 (stereo not given) + COC1C(OC(N)=O)C(O)C(Oc2ccc3c(O)c(NC(=O)c4ccc(O)c(CC=C(C)C)c4)c(=O)oc3c2C)OC1(C)C

a:
["166%", "4.59%", "94.2%", "109%"]

Could you tell me viability, T/C for each of these molecules? They are listed below.
1. Cn1ncnc1[C@H]1c2n[nH]c(=O)c3cc(F)cc(c23)N[C@@H]1c1ccc(F)cc1 + Cc1cccc(N(C)C(=O)C2C(O)CCN2c2nc(C)cc(C(F)(F)F)c2C#N)c1
2. C=CCn1c(=O)c2cnc(Nc3ccc(N4CCN(C)CC4)cc3)nc2n1-c1cccc(C(C)(C)O)n1 + Cc1cccc(N(C)C(=O)C2C(O)CCN2c2nc(C)cc(C(F)(F)F)c2C#N)c1
3. CCCS(=O)(=O)Nc1ccc(F)c(C(=O)c2c[nH]c3ncc(-c4ccc(Cl)cc4)cc23)c1F + COC1C(OC(N)=O)C(O)C(Oc2ccc3c(O)c(NC(=O)c4ccc(O)c(CC=C(C)C)c4)c(=O)oc3c2C)OC1(C)C
4. O=C(Nc1ccc(O)c(NS(=O)(=O)c2ccc(F)cc2)c1)c1ccc(-c2ccccc2)cc1 + Cc1cccc(N(C)C(=O)C2C(O)CCN2c2nc(C)cc(C(F)(F)F)c2C#N)c1
5. COc1ccc([C@@H](O)c2cc(-c3ncnc4cc(N5CCOCC5)ccc34)c(F)cc2Cl)nn1 + Nc1ccc(C#CCN(C(=O)Cc2ncc(C(F)(F)F)cc2C(F)(F)F)c2ccc(F)cc2)nn1
6. CNCc1ccc(-c2[nH]c3cc(F)cc4c3c2CCNC4=O)cc1 + Nc1ccc(C#CCN(C(=O)Cc2ncc(C(F)(F)F)cc2C(F)(F)F)c2ccc(F)cc2)nn1
7. O=C(c1cc(Cc2n[nH]c(=O)c3ccccc23)ccc1F)N1CCN(C(=O)C2CC2)CC1 + Nc1ccc(C#CCN(C(=O)Cc2ncc(C(F)(F)F)cc2C(F)(F)F)c2ccc(F)cc2)nn1

a:
["104%", "105%", "111%", "124%", "105%", "119%", "114%"]

q: Using known records, supply viability, T/C for CC[C@@]1(O)C(=O)OCc2c1cc1n(c2=O)Cc2cc3c(CN(C)C)c(O)ccc3nc2-1 + Cc1cccc(N(C)C(=O)C2C(O)CCN2c2nc(C)cc(C(F)(F)F)c2C#N)c1
a: 11.9%
